- assayed_target: human adenosine A3 receptor (Homo sapiens, UniProt P0DMS8)
- Construct: expressed in transfected cells; host or cells: CHO cells, semliki forest virus expression system; membrane preparation
- Sequence (P0DMS8 whole entry): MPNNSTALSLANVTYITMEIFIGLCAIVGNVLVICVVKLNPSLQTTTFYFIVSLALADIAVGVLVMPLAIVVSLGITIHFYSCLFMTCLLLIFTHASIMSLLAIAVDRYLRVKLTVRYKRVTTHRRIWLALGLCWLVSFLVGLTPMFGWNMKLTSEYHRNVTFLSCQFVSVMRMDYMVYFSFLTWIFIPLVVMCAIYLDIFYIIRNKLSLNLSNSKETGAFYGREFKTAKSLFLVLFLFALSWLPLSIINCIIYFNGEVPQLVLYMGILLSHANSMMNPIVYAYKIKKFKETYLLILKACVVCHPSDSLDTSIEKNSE
- protocol_summary: Human adenosine A3 receptor [125I]-AB-MECA binding assay
- run_parameters: membranes of CHO cells, read-out: hA3 (pKi) (converted)
quantity_name: Ki (µM)

Take a look at these entries with their results.
>  <structure_smiles_string>
COc1cc(-c2nc(N)nc(SC)c2C#N)cc(OC)c1OC

>  <measurement_units>
µM

>  <Ki>
1.95

$$$$
>  <structure_smiles_string>
N#Cc1c(OCc2ccc3ccccc3c2)nc(N)nc1-c1ccco1

>  <measurement_units>
µM

>  <Ki>
8.71

$$$$
>  <structure_smiles_string>
N#Cc1c(NCCNc2ccccc2)nc(N)nc1-c1ccco1

>  <measurement_units>
µM

>  <Ki>
6.03

$$$$
>  <structure_smiles_string>
N#Cc1c(/C=C/c2ccccc2)nc(N)nc1-c1ccco1

>  <measurement_units>
µM

>  <Ki>
2.04

$$$$
>  <structure_smiles_string>
N#Cc1c(NCc2ccccc2)nc(N)nc1-c1ccco1

>  <measurement_units>
µM

>  <Ki>
8.91

$$$$

[a] N#Cc1cnc(N)nc1-c1cccs1
[b] N#Cc1c(NCc2ccc(Br)cc2)nc(N)nc1-c1ccco1
[c] N#Cc1c(NCCNc2ccc(Cl)cc2)nc(N)nc1-c1ccco1
[d] Cc1ccccc1CNc1nc(N)nc(-c2ccco2)c1C#N
[e] CCc1ccc(CNc2nc(N)nc(-c3ccco3)c2C#N)cc1
Input line: Please order the records by their reported Ki, lowest number first. Quick reminder: the answer is the labels in the order asked.
Output line: d, a, e, b, c

---

- assayed_target: human adenosine A2A receptor (Homo sapiens)
- Construct: expressed in transfected cells; host or cells: CHO cells, semliki forest virus expression system; membrane preparation
- protocol_summary: Human adenosine A2A receptor [3H]-SCH-58261 binding assay
- run_parameters: human A2a receptor, membranes of CHO cells, [3H]-SCH-58261
quantity_name: pKi (affinity to the human A2a receptor)

>  <compound>
N#Cc1c(NCc2ccccc2Br)nc(N)nc1-c1ccc(Br)o1 [Example 512]

>  <pKi (affinity to the human A2a receptor)>
8.88

$$$$
>  <compound>
Cc1ccnc(CNc2nc(N)nc(C3=CCCO3)c2C#N)c1 [Example 464]

>  <pKi (affinity to the human A2a receptor)>
8.12

$$$$
>  <compound>
N#Cc1c(SCCc2ccccn2)nc(N)nc1-c1ccc(Cl)o1 [Example 478]

>  <pKi (affinity to the human A2a receptor)>
8.96

$$$$
>  <compound>
Cc1cnc(COc2nc(N)nc(-c3ccc(C)o3)c2C#N)c(C)c1 [Example 466]

>  <pKi (affinity to the human A2a receptor)>
8.97

$$$$

---

- assayed_target: human adenosine A2A receptor (Homo sapiens)
- Construct: expressed in transfected cells; host or cells: CHO cells, semliki forest virus expression system; membrane preparation
- protocol_summary: Human adenosine A2A receptor [3H]-SCH-58261 binding assay
- run_parameters: human A2a receptor, membranes of CHO cells, [3H]-SCH-58261; read-out: pKi (affinity to the human A2a receptor) (converted)
quantity_name: Ki (nM)

Take a look at these entries with their results.
>  <structure_smiles_string>
Cc1ccnc(CNc2nc(N)nc(-c3ccco3)c2C#N)c1

>  <measured_value>
2.09

$$$$
>  <structure_smiles_string>
CN(C)c1ccc(CNc2nc(N)nc(-c3ccco3)c2C#N)cc1

>  <measured_value>
9.77

$$$$
>  <structure_smiles_string>
Nc1nc(SCCc2ccccn2)c(Br)c(-c2ccco2)n1

>  <measured_value>
3.8

$$$$
>  <structure_smiles_string>
C=Cc1ccc(CNc2nc(N)nc(-c3ccco3)c2C#N)cc1

>  <measured_value>
9.33

$$$$
>  <structure_smiles_string>
N#Cc1c(NCc2ccccc2Cl)nc(N)nc1-c1ccco1

>  <measured_value>
0.589

$$$$

[P] Cc1cccc(CNc2nc(N)nc(-c3ccco3)c2C#N)c1
[Q] N#Cc1c(NCc2ccc3c(c2)OCO3)nc(N)nc1-c1ccco1
Input line: Which record shows the lower Ki: the first, P , or the second, Q ? Pick one; state its label.
Output line: P

[1] N#Cc1c(NCc2ccccc2)nc(N)nc1-c1ccco1
[2] N#Cc1c(NCc2ccc3ccccc3n2)nc(N)nc1-c1ccco1
Input line: Which shows the larger Ki value: 1 or 2 ? Pick one; state its label.
Output line: 1

---

- assayed_target: human adenosine A1 receptor (Homo sapiens)
- Construct: expressed in transfected cells; host or cells: CHO cells, semliki forest virus expression system; membrane preparation
- Sequence (P30542 whole entry): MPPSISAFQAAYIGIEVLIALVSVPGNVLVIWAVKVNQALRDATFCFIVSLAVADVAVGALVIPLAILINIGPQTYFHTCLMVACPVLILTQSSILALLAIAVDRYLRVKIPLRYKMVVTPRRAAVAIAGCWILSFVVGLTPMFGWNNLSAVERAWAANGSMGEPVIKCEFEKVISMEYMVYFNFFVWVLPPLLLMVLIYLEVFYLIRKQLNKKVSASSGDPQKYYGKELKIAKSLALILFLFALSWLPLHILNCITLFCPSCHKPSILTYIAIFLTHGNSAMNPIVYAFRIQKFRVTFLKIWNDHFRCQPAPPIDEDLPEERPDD
- protocol_summary: Human adenosine A1 receptor [3H]-DPCPX binding assay
- run_parameters: membranes of CHO cells, read-out: hA1 (pKi) (converted)
- Experimental: The gene encoding human adenosine A1 receptor was recombinantly introduced and expressed in chinese hamster ovary (CHO) cells using the semliki forest virus expression system. […] Assay plates were incubated for 1 hour at room temperature before centrifugation and then bound ligand determined using a Packard Topcount scintillation counter. IC50 values were calculated using a non-linear curve fitting program and Ki values calculated using the Cheng-Prussoff equation.
quantity_name: Ki (nM)

>  <structure_smiles_string>
N#Cc1cnc(N)nc1-c1cccs1

>  <assayed_target>
human adenosine A1 receptor (Homo sapiens)

>  <quantity_name>
Ki

>  <measurement_units>
nM

>  <measured_value>
2510

$$$$
>  <structure_smiles_string>
Cc1ccc(CNc2nc(N)nc(-c3ccco3)c2C#N)cc1

>  <assayed_target>
human adenosine A1 receptor (Homo sapiens)

>  <quantity_name>
Ki

>  <measurement_units>
nM

>  <measured_value>
2040

$$$$
>  <structure_smiles_string>
COc1cc(-c2nc(N)nc(SC)c2C#N)cc(OC)c1OC

>  <assayed_target>
human adenosine A1 receptor (Homo sapiens)

>  <quantity_name>
Ki

>  <measurement_units>
nM

>  <measured_value>
1320

$$$$

[I] N#Cc1c(NCc2ccccc2)nc(N)nc1-c1ccco1
[II] N#Cc1c(NCc2ccc(C(F)(F)F)cc2)nc(N)nc1-c1ccco1
[III] N#Cc1c(/C=C/c2ccccc2)nc(N)nc1-c1ccco1
[IV] N#Cc1c(NCCNc2ccccc2)nc(N)nc1-c1ccco1
Input line: Please order the records by their reported Ki, lowest number first. Quick reminder: the answer is the labels in the order asked.
Output line: III, IV, I, II
(III: 389 nM, IV: 692 nM, I: 1660 nM, II: 6310 nM)

[P] N#Cc1c(NCc2ccc3ccccc3c2)nc(N)nc1-c1ccco1
[Q] N#Cc1c(NCc2ncc(C(F)(F)F)cc2Cl)nc(N)nc1-c1ccco1
Input line: Which record shows the lower Ki: the first, P , or the second, Q ? Pick one; state its label.
Output line: Q
(Q: 4470 nM, P: 6920 nM)

---

- assayed_target: human adenosine A2A receptor (Homo sapiens, UniProt P29274)
- Construct: expressed in transfected cells; host or cells: CHO cells, semliki forest virus expression system; membrane preparation
- Sequence (P29274 whole entry): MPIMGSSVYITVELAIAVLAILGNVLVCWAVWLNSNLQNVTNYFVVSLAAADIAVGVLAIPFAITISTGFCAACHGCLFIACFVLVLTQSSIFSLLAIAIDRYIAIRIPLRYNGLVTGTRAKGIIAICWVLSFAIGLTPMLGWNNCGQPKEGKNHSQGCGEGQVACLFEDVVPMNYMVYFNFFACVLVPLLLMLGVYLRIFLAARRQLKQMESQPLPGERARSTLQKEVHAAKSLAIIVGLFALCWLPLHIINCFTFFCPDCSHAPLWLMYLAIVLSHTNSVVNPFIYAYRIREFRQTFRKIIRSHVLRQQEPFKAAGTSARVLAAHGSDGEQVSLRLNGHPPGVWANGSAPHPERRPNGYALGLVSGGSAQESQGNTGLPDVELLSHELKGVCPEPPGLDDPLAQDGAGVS
- protocol_summary: Human adenosine A2A receptor [3H]-SCH-58261 binding assay
- run_parameters: human A2A receptor, selectivity table
quantity_name: hA2 (pKi)

>  <compound>
N#Cc1c(NCc2ccc3ccccc3c2)nc(N)nc1-c1ccco1 [Example 298]

>  <quantity_name>
hA2 (pKi)

>  <measured_value>
8.23

$$$$
>  <compound>
N#Cc1c(NCc2ccc(Br)cc2)nc(N)nc1-c1ccco1 [Example 325]

>  <quantity_name>
hA2 (pKi)

>  <measured_value>
8.26

$$$$
>  <compound>
N#Cc1c(NCc2ccc(C(F)(F)F)cc2)nc(N)nc1-c1ccco1 [Example 345]

>  <quantity_name>
hA2 (pKi)

>  <measured_value>
8.38

$$$$
>  <compound>
N#Cc1c(NCc2ncc(C(F)(F)F)cc2Cl)nc(N)nc1-c1ccco1 [Example 400]

>  <quantity_name>
hA2 (pKi)

>  <measured_value>
8.44

$$$$
>  <compound>
CCc1ccc(CNc2nc(N)nc(-c3ccco3)c2C#N)cc1 [Example 375]

>  <quantity_name>
hA2 (pKi)

>  <measured_value>
8.40

$$$$
>  <compound>
Cc1ccc(CNc2nc(N)nc(-c3ccco3)c2C#N)cc1 [Example 290]

>  <quantity_name>
hA2 (pKi)

>  <measured_value>
8.17

$$$$
>  <compound>
N#Cc1c(OCc2ccc3ccccc3c2)nc(N)nc1-c1ccco1 [Example 303]

>  <quantity_name>
hA2 (pKi)

>  <measured_value>
8.60

$$$$
>  <compound>
N#Cc1c(NCCNc2ccc(Cl)cc2)nc(N)nc1-c1ccco1 [Example 318]

>  <quantity_name>
hA2 (pKi)

>  <measured_value>
8.27

$$$$
>  <compound>
N#Cc1c(NCCNc2ccccc2)nc(N)nc1-c1ccco1 [Example 132]

>  <quantity_name>
hA2 (pKi)

>  <measured_value>
8.33

$$$$
>  <compound>
Cc1ccccc1CNc1nc(N)nc(-c2ccco2)c1C#N [Example 288]

>  <quantity_name>
hA2 (pKi)

>  <measured_value>
8.59

$$$$
>  <compound>
N#Cc1c(NCc2ccccc2)nc(N)nc1-c1ccco1 [Example 42]

>  <quantity_name>
hA2 (pKi)

>  <measured_value>
8.33

$$$$
>  <compound>
N#Cc1c(/C=C/c2ccccc2)nc(N)nc1-c1ccco1 [Example 149]

>  <quantity_name>
hA2 (pKi)

>  <measured_value>
8.34

$$$$
